This collection of values is drawn from BindingDB's records for doi:10.1080/14756360109162375.

Biological target: N(4)-(beta-N-acetylglucosaminyl)-L-asparaginase (Homo sapiens, UniProt P20933)
Experiment: Inhibition Assay
Settings: pH 5.8; 37 °C
Decision: Ki beneath 900 µM gives Y; Ki meeting or exceeding 900 µM gives N.

Ask | Criterion: Ki strictly below 900 µM. Is it met by O=C(O)CC(Cl)C(=O)O (stereo unspecified) ?
Reply | N

Ask | For `N[C@@H](CC(=O)O)C(=O)O` then?
Reply | Y

Ask | Field entry: CC(=O)NC1C(NC(=O)CBr)OC(CO)C(O)C1O (stereo unspecified)
Reply | Y

Ask | Another molecule: O=C(O)CC(Br)C(=O)O (stereo unspecified)
Reply | N

Ask | Subsequent entry: CC(=O)NC1C(NC(=O)CCl)OC(CO)C(O)C1O (stereo unspecified)
Reply | Y
